Source listed as patent US8975249B2.

Could you please report measured pEC50 for the items listed next?
Target: EGFR delE746-A750 deletion mutation (HCC827 cells) (Homo sapiens (Human), UniProt P00533, DEL746-750)
Assay: Phospho-EGFR signaling immunoblot in HCC827 cells
Conditions: HCC827 cells, 1 hr treatment, phospho-EGFR (Y1068)
Experimental: A431 human epidermoid carcinoma, H1975 human NSCLC and HCC827 human NSCLC adenocarcinoma cells were obtained from the American Type Culture Center (Manassas, Va.). A431 cells were grown in DMEM (Invitrogen, Carlsbad, Calif.) supplemented with 10% FBS (HyClone, South Logan, Utah) and 1% Penicillin-Streptomycin (P/S, Lonza, Walkersville, Md.). […] Phospho-protein signals were quantitated using Odyssey Infrared Imaging (Li-Cor Biosciences). […]
pEC50: −log10 of the molar value.

C=CC(=O)Nc1cccc(Nc2nc(Nc3ccc(N4CCOCC4)cc3OC(F)F)ncc2C(F)(F)F)c1 ... 7.00 to 8.00
C=CC(=O)Nc1cccc(Nc2nc(Nc3ccc(N4CCN(S(C)(=O)=O)CC4)cc3OC)ncc2C(F)(F)F)c1 ... 6.30 to 7.00

Next compound, pEC50 to be filled in.
**Q:** Please report the measured pEC50 for C=CC(=O)Nc1cccc(Oc2nc(Nc3ccc(N4CCN(C(=O)OC(C)(C)C)CC4)cc3OC)ncc2Cl)c1
**A:** > 8.00

* * *

Target: EGFR double mutation L858R/T790M (H1975 cells) (Homo sapiens (Human), UniProt P00533, L858R/T790M)
Test: Phospho-EGFR signaling immunoblot in H1975 cells
Assay type: cell-based
Conditions: signaling EC50 WT EGFR / H1975
Can you tell me Ratio WT/mutant (H1975) for the items I'm about to list?

Example molecules with recorded Ratio WT/mutant (H1975):
C=CC(=O)Nc1cccc(Nc2nc(Nc3ccc(N4CCCN(C(C)=O)CC4)cc3OC)ncc2C(F)(F)F)c1 ... >5
C=CC(=O)Nc1cccc(Nc2nc(Nc3ccc(N4CCOCC4)cc3OC)ncc2C(F)(F)F)c1 ... >50
C=CC(=O)Nc1cccc(Nc2nc(Nc3ccc(N4CCN(C(C)=O)[C@H](C(=O)OC)C4)cc3OC)ncc2C(F)(F)F)c1 ... >50
C=CC(=O)Nc1cccc(Nc2nc(Nc3ccc(N4CCN(C(=O)CO)CC4)cc3OC)ncc2Cl)c1 ... >1

Quick one: give me Ratio WT/mutant (H1975) for each item below, same order please.
1. C=CC(=O)Nc1cccc(Nc2nc(Nc3ccc(N4CCN(S(C)(=O)=O)CC4)cc3OC)ncc2C(F)(F)F)c1
2. C=CC(=O)Nc1cccc(Nc2nc(Nc3ccc(N4CCN(C(C)=O)CC4)cc3OC(F)(F)F)ncc2C(F)(F)F)c1
3. C=CC(=O)Nc1cccc(Oc2nc(Nc3ccc(N4CCOCC4)cc3OC)ncc2C(F)(F)F)c1

**A:**
[">30", ">50", ">50"]

* * *

Molecular target: EGFR double mutation L858R/T790M (H1975 cells) (Homo sapiens (Human), UniProt P00533, L858R/T790M)
Assay: Phospho-EGFR signaling immunoblot in H1975 cells
Format: cell-based
Settings: signaling EC50 WT EGFR / H1975
MEASURED PROPERTY: Ratio WT/mutant (H1975)

Solved entries:
C=CC(=O)Nc1cccc(Oc2nc(Nc3ccc(N4CCN(S(C)(=O)=O)CC4)cc3OC)ncc2Cl)c1 [Compound I-26] ... >40
C=CC(=O)Nc1cccc(Oc2nc(Nc3ccc(N4CCN(C(=O)NC)CC4)cc3OC)ncc2C(F)(F)F)c1 [Compound I-21] ... >5
C=CC(=O)Nc1cccc(Nc2nc(Nc3ccc(N4CCN(C(=O)C(C)(C)C)CC4)cc3OC)ncc2C(F)(F)F)c1 [Compound I-34] ... >35

Please examine the following record next.
**Q:** Recall and state the measured Ratio WT/mutant (H1975) for C=CC(=O)Nc1cccc(Oc2nc(Nc3ccc(N4CCOCC4)cc3OC)ncc2Cl)c1 [Compound I-5] .
**A:** >30
